These measurements were taken from ChEMBL document CHEMBL1134960.

Test system: UMUC3
Assay notes: Cytotoxicity against bladder cancer cell lines UMUC3 was determined
Format: functional, cell-based
Measurement conditions: Homo sapiens
Property: IC50 (nM)
Express your answer in nM, writing the number without its unit.

Ask: I would be grateful if you could share the reported IC50 for COc1cccc2c1C(=O)c1c(O)c3c(c(O)c1C2=O)C[C@@](O)(C(=O)CO)C[C@@H]3O[C@H]1C[C@H](N)[C@H](O)[C@H](C)O1 .
Reply: 9.2

Ask: Also check [O-][S+]1Sc2ccccc2S1
Reply: 366
